Reported pIC50 values for a set of molecules
assayed-target: viral kinase pUL-97 (Human cytomegalovirus, UniProt P16788)
Construct: The pUL-97 gene was cloned into a baculovirus vector; GST (glutathione S-transferase) (N); made in house; host or cells: Sf9 insect cells, baculovirus
Sequence (P16788 whole entry): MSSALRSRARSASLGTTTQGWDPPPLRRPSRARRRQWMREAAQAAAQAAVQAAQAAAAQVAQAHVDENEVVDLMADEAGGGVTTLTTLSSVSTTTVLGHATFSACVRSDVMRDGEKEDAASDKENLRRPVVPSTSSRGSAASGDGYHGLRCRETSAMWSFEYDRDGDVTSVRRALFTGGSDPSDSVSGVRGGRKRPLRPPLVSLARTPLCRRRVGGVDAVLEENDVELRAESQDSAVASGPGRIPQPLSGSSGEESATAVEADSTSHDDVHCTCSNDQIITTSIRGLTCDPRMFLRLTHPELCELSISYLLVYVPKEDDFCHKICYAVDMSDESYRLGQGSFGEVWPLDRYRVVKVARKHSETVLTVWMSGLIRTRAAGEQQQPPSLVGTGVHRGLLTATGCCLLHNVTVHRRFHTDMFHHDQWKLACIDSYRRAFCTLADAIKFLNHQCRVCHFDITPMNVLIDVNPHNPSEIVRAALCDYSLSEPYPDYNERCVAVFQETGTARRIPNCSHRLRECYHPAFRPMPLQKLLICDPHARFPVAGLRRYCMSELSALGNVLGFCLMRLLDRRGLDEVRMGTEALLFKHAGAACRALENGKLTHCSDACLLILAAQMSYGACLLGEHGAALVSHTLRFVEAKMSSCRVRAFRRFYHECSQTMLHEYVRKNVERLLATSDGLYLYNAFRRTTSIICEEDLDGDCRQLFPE
assay-name: UL97 kinase assay on Immobilon plate
Format: biochemical
assay-conditions: inhibition of UL 97 kinase activity; class by IC50 / % inhibition at 10 or 100 μM; read-out: Activity Class [A, B, C]
Method: UL97 Kinase-Assay on Immobilon Plate The effect of pyrazine derivatives of this invention was tested on the activity of the viral kinase pUL-97. […] Measuring Incorporation of Radioactivity: The Immobilon plate (Millipore) was rinsed with 50 μl methanol/well. […] After addition of 50 μl scintillation cocktail (Roth, Germany) per well incorporation of radioactivity was measured using a Betareader (Wallac) and enzymatic activity calculated.
pIC50: −log10 of the molar value.

OCC1CCCN1c1cncc(-c2cc3ccccc3o2)n1 (centres unmarked)
5.00 to 6.00
NC(=O)c1ccc(-c2cncc(N3CCN(C(=O)c4ccco4)CC3)n2)cc1
> 6.00
CN(C)c1cccc(-c2cncc(N3CCN(c4ccncc4)CC3)n2)c1
4.00 to 5.00
COc1ccc(-c2cncc(N3CCN(c4cccc(C(F)(F)F)c4)CC3)n2)cc1OC
4.00 to 5.00

Recorded pIC50 (molecule `CC(=O)c1ccc(N2CCN(c3cncc(-c4ccccc4C(C)=O)n3)CC2)cc1` ): 4.00 to 5.00

Recorded pIC50 (molecule `COc1ccc(C(C)C)cc1-c1cncc(N2CCN(c3ccncc3)CC2)n1` ): 4.00 to 5.00

Recorded pIC50 (molecule `COc1ccc(-c2cncc(N3CCN(c4cccc(Cl)c4)CC3)n2)cc1OC` ): 5.00 to 6.00

Recorded pIC50 (molecule `FC(F)(F)c1cccc(-c2cncc(N3CCN(c4ccncc4)CC3)n2)c1` ): > 6.00

Recorded pIC50 (molecule `N#Cc1cccc(-c2cncc(N3CCN(c4ccncc4)CC3)n2)c1` ): 5.00 to 6.00

Recorded pIC50 (molecule `Cc1cc(C)cc(-c2cncc(N3CCN(c4ccncc4)CC3)n2)c1` ): 5.00 to 6.00

Recorded pIC50 (molecule `CC(=O)c1cccc(-c2cncc(N3CCN(c4ccccc4)CC3)n2)c1` ): 5.00 to 6.00

The reported measurements were obtained from patent US20080194574A1.
